We begin with a simple list: items and their reported IC50.
# Test target: recombinant human IL17a (binding to its receptor IL17R) (Homo sapiens, UniProt Q16552)
# Construct: purchased R&D Systems 317-ILB (IL17a); 177-IR (IL17R/Fc)
# Protocol text: IL-17 competition ELISA I (IL17a coated, IL17R/Fc binding)
# Experimental: ELISA I: The ability of the compounds to block binding of IL17a to its receptor, IL17R, was analyzed in a competition ELISA format. High binding 96-well plates (Costar #9018) were coated with 20 nM of recombinant human IL17a (R&D Systems #317-ILB) in PBS (0.64 μg/mL), 100 μL/well, for 30 min at 37′C followed by 5 min at 4′C. […] After the sufficient color development, the reaction was fixed by the addition of 100 μL/well 0.5 N HCl and absorbance was measured at 450 nm on Biotek plate reader. […]
Attribute measured: IC50

In [3]: df
Out[3]:
                                  structure  endpoint_result
0  CC1(C)CC(=O)NCCCCCNC(=O)CNC(=O)[C@@H](Cc2ccc(NC(=O)[C@H](Cc3cccs3)NC(=O)Cc3ccc(O)cc3)cc2)NC(=O)C1   100 to 1000 nM
1  O=C1CNC(=O)[C@@H](Cc2ccc(NC(=O)[C@H](Cc3ccccc3Cl)NC(=O)Cc3ccccc3)cc2)NC(=O)CC2(CCCC2)CC(=O)NCCCCCN1         < 100 nM
2  O=C1CNC(=O)[C@@H](Cc2ccc(NC(=O)[C@@H](NC(=O)Cc3ccc(F)c(F)c3)C3CCCCC3)cc2)NC(=O)CC2(CCCC2)CC(=O)NCCCCCN1         < 100 nM

* * *

We begin with a simple list: items and their reported pKd.
# Test target: IL17A (Homo sapiens, UniProt Q16552)
# Sequence (Q16552 24-155): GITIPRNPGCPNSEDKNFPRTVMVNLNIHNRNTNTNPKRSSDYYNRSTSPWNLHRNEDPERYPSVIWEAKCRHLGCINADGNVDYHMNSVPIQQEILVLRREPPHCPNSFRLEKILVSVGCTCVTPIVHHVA
# Protocol text: Surface Plasmon Resonance (SPR) analysis of compound interactions with IL17A
# Condition context: SPR binding to IL17A
pKd: −log10 of the molar value.

Molecule	pKd
O=C1CNC(=O)[C@@H](Cc2ccc(NC(=O)[C@H](Cc3ccccc3Cl)NC(=O)Cc3ccccn3)cc2)NC(=O)CC2(CCCC2)CC(=O)NCCCCCN1 [Compound 226]	> 7.00
CC(=O)N[C@@H](Cc1ccccc1Cl)C(=O)Nc1ccc(C[C@H]2NC(=O)CC3(CCCC3)CC(=O)NCCCCCNC(=O)CCNC2=O)cc1 [Compound 154]	> 7.00
COC(=O)[C@@H]1CCCCNC(=O)CCCNC(=O)[C@@H](Cc2ccc(NC(=O)[C@H](Cc3ccccc3C)NC(=O)c3ccccc3)cc2)NC(=O)CC2(CCCC2)CC(=O)N1 [Compound 127]	6.00 to 7.00
CC(=O)N[C@@H](Cc1ccccc1Cl)C(=O)Nc1ccc(C[C@H]2NC(=O)CC3(CCCC3)CC(=O)N(CCO)CCCCCNC(=O)CNC2=O)cc1 [Compound 169]	> 7.00
O=C1CC2(CCCC2)CC(=O)N[C@@H](C(=O)O)CCCCNC(=O)[C@H](Cc2ccc(NC(=O)[C@H](Cc3ccccc3F)NC(=O)Cc3ccccc3)cc2)N1 [Compound 102]	< 5.00
CC1(C)NC(=O)[C@@H](Cc2ccc(NC(=O)[C@H](Cc3ccccc3Cl)NC(=O)Cc3ccccc3)cc2)NC(=O)CC2(CCCC2)CC(=O)N[C@@H](C(=O)O)CCCCNC1=O [Compound 182]	6.00 to 7.00
O=C1CNC(=O)[C@@H](Cc2ccc(NC(=O)[C@H](Cc3ccccc3Cl)NC(=O)c3ccccn3)cc2)NC(=O)CC2(CCCC2)CC(=O)NCCCCCN1 [Compound 195]	6.00 to 7.00
COC(=O)[C@H]1CCCCNC(=O)CCCNC(=O)[C@@H](Cc2ccc(NC(=O)[C@H](Cc3ccccc3F)NC(=O)Cc3ccccc3)cc2)NC(=O)CC2(CCCC2)CC(=O)N1 [Compound 107]	6.00 to 7.00
CC(C)(C)C(=O)N[C@@H](Cc1ccccc1Cl)C(=O)Nc1ccc(C[C@H]2NC(=O)CC3(CCCC3)CC(=O)NCCCCCNC(=O)CNC2=O)cc1 [Compound 206]	> 7.00
COC(=O)[C@@H]1CCCCNC(=O)CNC(=O)[C@@H](Cc2ccc(NC(=O)[C@H](Cc3ccccc3Cl)NC(=O)c3ccccc3)cc2)NC(=O)CC2(CCCC2)CC(=O)N1 [Compound 144]	> 7.00
O=C1CNC(=O)[C@@H](Cc2ccc(NC(=O)[C@H](Cc3ccccc3Cl)NC(=O)Cc3ccccc3)cc2)NC(=O)CC2(CCCC2)CC(=O)NCCCCCN1 [Compound 159]	> 7.00
COC(=O)[C@@H]1CCCCNC(=O)CCCNC(=O)[C@@H](Cc2ccc(NC(=O)[C@H](Cc3ccccc3Cl)NC(=O)Cc3ccccc3)cc2)NC(=O)CC2(CCCC2)CC(=O)N1 [Compound 112]	> 7.00
CC(C)(C)[C@H](NC(=O)Cc1ccccc1)C(=O)Nc1ccc(C[C@H]2NC(=O)CC3(CCCC3)CC(=O)NCCCCCNC(=O)CNC2=O)cc1 [Compound 231]	6.00 to 7.00
O=C1CNC(=O)[C@@H](Cc2ccc(NC(=O)[C@H](Cc3ccc(Cl)cc3Cl)NC(=O)Cc3ccccc3)cc2)NC(=O)CC2(CCCC2)CC(=O)NCCOCCN1 [Compound 210]	> 7.00
O=C1CNC(=O)[C@@H](Cc2ccc(NC(=O)[C@H](Cc3ccccc3Cl)NC(=O)c3ccccc3F)cc2)NC(=O)CC2(CCCC2)CC(=O)NCCCCCN1 [Compound 203]	> 7.00
COC(=O)[C@H]1CCCCNC(=O)CCCNC(=O)[C@@H](Cc2ccc(NC(=O)[C@H](Cc3ccccc3F)NC(=O)c3ccccc3)cc2)NC(=O)CC2(CCCC2)CC(=O)N1 [Compound 136]	> 7.00
COC(=O)[C@@H]1CCCCNC(=O)CNC(=O)[C@@H](Cc2ccc(NC(=O)[C@H](Cc3ccccc3F)NC(=O)c3ccccc3)cc2)NC(=O)CC2(CCCC2)CC(=O)N1 [Compound 151]	> 7.00
COC(=O)[C@H]1CCCCNC(=O)[C@H](CO)NC(=O)[C@@H](Cc2ccc(NC(=O)[C@H](Cc3ccccc3Cl)NC(=O)Cc3ccccc3)cc2)NC(=O)CC2(CCCC2)CC(=O)N1 [Compound 147]	6.00 to 7.00
O=C1CCCC(=O)N[C@H](Cc2ccc(NC(=O)[C@H](Cc3ccccc3Cl)NC(=O)Cc3ccccc3)cc2)C(=O)NCC(=O)NCCCCCN1 [Compound 221]	6.00 to 7.00
COC(=O)[C@H]1CCCCNC(=O)C(C)(C)NC(=O)[C@@H](Cc2ccc(NC(=O)[C@H](Cc3ccccc3Cl)NC(=O)c3ccccc3)cc2)NC(=O)CC2(CCCC2)CC(=O)N1 [Compound 146]	> 7.00
O=C1CCNC(=O)[C@@H](Cc2ccc(NC(=O)[C@H](Cc3ccccc3Cl)NC(=O)Cc3ccccc3)cc2)NC(=O)CC2(CCCC2)CC(=O)NCCCN1 [Compound 157]	> 7.00
